Each recorded value in this set is attributed to patent US4277465A.

For each entry below, report its Time course: Return to pre-medication level value.
Test: Rectal insulin suppositories (Recipes 35-41), glucose response
Assay type: in vivo
Conditions: rabbit 2.5-3kg; rectal suppository 6 I.U. insulin; enamine derivative 0.025g (5%)
Report as a plain number; the unit min is understood.

query: Please supply the value of reported Time course: Return to pre-medication level for the item CCOC(=O)C(C)OC(=O)C=C(C)N[C@@H](Cc1ccccc1)C(=O)[O-].[Na+] (stereo partly shown)
result: 150

query: Output Time course: Return to pre-medication level of CCOC(=O)CNC(=O)C=C(C)N[C@@H](Cc1ccccc1)C(=O)[O-].[Na+]
result: 120

query: Supply Time course: Return to pre-medication level value. Item: CC(=CC(=O)OCC(O)CO)NCC(=O)[O-].[Na+] (stereo not shown)
result: 150

query: Look up Time course: Return to pre-medication level of CCOC(=O)C(C)OC(=O)C=C(C)NCC(=O)[O-].[Na+] (stereo not shown) and report it.
result: 150
